Ref: ChEMBL document CHEMBL1124238

Test system: Folylpolyglutamate synthase (Mus musculus)
Experimental details: Inhibition of Folyl-polyglutamate synthase from mouse liver
Design: concentration or dose not given beside the values
Reported conditions: concentration not given here
I would appreciate it if you labelled entries 1.0 when inhibition is 20% or higher, otherwise 0.0.

> print(dat)
                                    compound  assigned.class
 1  CN(Cc1cnc2nc(N)nc(N)c2n1)c1ccc(C(=O)NCCCS(=O)(=O)O)cc1             0.0
 2  CN(Cc1cnc2nc(N)nc(N)c2n1)c1ccc(C(=O)NCCP(=O)(O)O)cc1             1.0
 3  CCOP(=O)(O)CCCNC(=O)c1ccc(N(C)Cc2cnc3nc(N)nc(N)c3n2)cc1             0.0
 4  Nc1nc(N)c2nc(CNc3ccc(C(=O)NC(CCS(=O)(=O)O)C(=O)O)cc3)cnc2n1 (stereo not given)             1.0
 5  CN(Cc1cnc2nc(N)nc(N)c2n1)c1ccc(C(=O)NCCCP(=O)(O)O)cc1             0.0
 6  CN(Cc1cnc2nc(N)nc(N)c2n1)c1ccc(C(=O)NCCS(=O)(=O)O)cc1             1.0
 7  CN(Cc1cnc2nc(N)nc(N)c2n1)c1ccc(C(=O)NCS(=O)(=O)O)cc1             0.0
 8  CN(Cc1cnc2nc(N)nc(N)c2n1)c1ccc(C(=O)NC(CCP(=O)(O)O)C(=O)O)cc1 (stereo not given)             1.0
 9  CN(Cc1cnc2nc(N)nc(N)c2n1)c1ccc(C(=O)NCCCCS(=O)(=O)O)cc1             1.0
10  CN(Cc1cnc2nc(N)nc(N)c2n1)c1ccc(C(=O)NC(CCS(=O)(=O)O)C(=O)O)cc1 (stereo not given)             1.0

----------
Reported pIC50 values follow for various compounds
Target of assay: Dihydrofolate reductase (Mus musculus, UniProt P00375)
Sequence (P00375 whole entry): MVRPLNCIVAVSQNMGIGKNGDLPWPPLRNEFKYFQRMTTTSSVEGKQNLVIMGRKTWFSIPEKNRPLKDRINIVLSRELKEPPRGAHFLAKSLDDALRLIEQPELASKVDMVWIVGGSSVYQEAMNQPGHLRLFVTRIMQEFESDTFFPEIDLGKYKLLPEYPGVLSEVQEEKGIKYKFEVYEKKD
Experimental details: Inhibition of dihydrofolate reductase (DHFR) in mouse L1210 leukemia cells
pIC50: −log10 of the molar value.
Observed property: pIC50

> print(dat)
                                   compound  quantitative.result
1  Nc1nc(N)c2nc(CNc3ccc(C(=O)NC(CCCP(=O)(O)O)C(=O)O)cc3)cnc2n1 (centres undefined)                 7.08
2  Nc1nc(N)c2nc(CNc3ccc(C(=O)NC(CCCCP(=O)(O)O)C(=O)O)cc3)cnc2n1 (centres undefined)                 7.17
3  Nc1nc(N)c2nc(CNc3ccc(C(=O)NC(CP(=O)(O)O)C(=O)O)cc3)cnc2n1 (centres undefined)                 6.26
4  Nc1nc(N)c2nc(CNc3ccc(C(=O)NC(CCP(=O)(O)O)C(=O)O)cc3)cnc2n1 (centres undefined)                 7.20

----------
Reported pKi values follow for various compounds
Experimental details: Inhibition of Folyl-polyglutamate synthase from mouse liver
pKi: −log10 of the molar value.
Observed property: pKi

> print(dat)
                                   compound  quantitative.result
1  Nc1nc(N)c2nc(CNc3ccc(C(=O)NC(CCCP(=O)(O)O)C(=O)O)cc3)cnc2n1 (centres undefined)                 3.91
2  Nc1nc(N)c2nc(CNc3ccc(C(=O)NC(CP(=O)(O)O)C(=O)O)cc3)cnc2n1 (centres undefined)                 3.05
3  Nc1nc(N)c2nc(CNc3ccc(C(=O)NC(CCCCP(=O)(O)O)C(=O)O)cc3)cnc2n1 (centres undefined)                 3.81
4  Nc1nc(N)c2nc(CNc3ccc(C(=O)NC(CCP(=O)(O)O)C(=O)O)cc3)cnc2n1 (centres undefined)                 5.08

----------
Reported inhibition values follow for various compounds
Species: Mus musculus
Experimental details: Inhibition of Folyl-polyglutamate synthase from mouse liver
Reported conditions: concentration not given here
Observed property: inhibition (%)

> print(dat)
                                   compound  unit.text  quantitative.result
1  Nc1nc(N)c2nc(CNc3ccc(C(=O)NC(CP(=O)(O)O)C(=O)O)cc3)cnc2n1 (centres undefined)          %                   22
2  Nc1nc(N)c2nc(CNc3ccc(C(=O)NC(CCCP(=O)(O)O)C(=O)O)cc3)cnc2n1 (centres undefined)          %                   52
3  Nc1nc(N)c2nc(CNc3ccc(C(=O)NC(CCP(=O)(O)O)C(=O)O)cc3)cnc2n1 (centres undefined)          %                  100
4  Nc1nc(N)c2nc(CNc3ccc(C(=O)NC(CCCCP(=O)(O)O)C(=O)O)cc3)cnc2n1 (centres undefined)          %                   44
